Data provenance is patent US20260374818A1.

# Method: Peptide aggregation in RPMI + 10% FBS with PBMCs (microscopy)
# Format: physicochemical
# Particulars: 50 μg/ml, overnight
Where a SMILES comes first, the peptide text is derived from it. [ ]: non-standard residue; d: D form.
Observable: Peptide aggregation

INSERT INTO measurements (molecule, result) VALUES
  ('CC[C@@H](C)[C@@H](NC(=O)[C@@H](C)NC(=O)[C@@H](CCCNC(=N)N)NC(=O)[C@@H](Cc1c[nH]c2ccccc12)NC(=O)[C@@H](CCC(N)=O)NC(=O)[C@H](NC(=O)[C@@H](CCCNC(=N)N)NC(=O)[C@H](NC(=O)[C@H](NC(=O)[C@@H](CCCNC(=N)N)NC(=O)[C@H](NC(=O)[C@H](N)CCCNC(=N)N)C(C)C)C(C)C)[C@H](C)CC)C(C)C)C(N)=O [AB103-D, rvrvirvqwrai-NH2] (H-[dR][dV][dR][dV][dI][dR][dV][dQ][dW][dR][dA][dI]-NH2)', 'some small aggregates'),
  ('CC[C@@H](C)[C@@H](NC(=O)[C@@H](CCCNC(=N)N)NC(=O)[C@H](N)CCCCN)C(=O)N[C@H](CCCNC(=N)N)C(=O)N[C@H](Cc1c[nH]c2ccccc12)C(=O)N[C@@H](C(=O)N[C@@H](C(=O)N[C@H](CC(C)C)C(=O)N[C@H](CCCNC(=N)N)C(=O)N[C@@H](C(=O)N[C@@H](C(=O)N[C@H](CCCNC(=N)N)C(N)=O)[C@H](C)CC)C(C)C)[C@H](C)CC)C(C)C [AB101-D, krirwvilrvir-NH2] (H-[dK][dR][dI][dR][dW][dV][dI][dL][dR][dV][dI][dR]-NH2)', 'some small aggregates');
